Below: a set of entries, each annotated with reported RUNX1 binding intensity.
Biological target: RUNX1 (UniProt Q01196)
Sequence (Q01196 whole entry): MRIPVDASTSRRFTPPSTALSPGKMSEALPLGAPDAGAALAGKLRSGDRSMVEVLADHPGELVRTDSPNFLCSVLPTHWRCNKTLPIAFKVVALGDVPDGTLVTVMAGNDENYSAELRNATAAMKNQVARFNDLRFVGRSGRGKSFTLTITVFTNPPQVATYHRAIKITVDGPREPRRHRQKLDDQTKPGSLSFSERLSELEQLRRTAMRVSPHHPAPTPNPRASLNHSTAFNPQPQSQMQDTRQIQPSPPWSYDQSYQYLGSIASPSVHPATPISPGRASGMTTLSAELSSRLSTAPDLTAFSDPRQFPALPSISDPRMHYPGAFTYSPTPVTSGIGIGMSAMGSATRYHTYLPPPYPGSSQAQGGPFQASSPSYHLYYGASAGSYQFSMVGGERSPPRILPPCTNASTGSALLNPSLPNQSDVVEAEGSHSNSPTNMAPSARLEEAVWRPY
Test: RUNX1 binding intensity (PBM fluorescence), RUNX1 alone (arbitrary fluorescence units); higher = stronger binding;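 further: Full-length recombinant human RUNX1 bound to double-stranded 36-bp genomic probes on a high-density microarray, scored as Alexa488 fluorescence per spot via anti-RUNX1 antibody, median of four replicate spots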
Details: RUNX1 concentration 2 nM; ETS1 concentration 0 nM
Answer with a number only.

{"ordered residues": "GCGAGGAGACAACTTCCTTTTGTGGTCTGACCCTGG", "RUNX1 binding intensity": 857}
{"ordered residues": "CAGTCAAGAGGAAATTATAAACCACTGCCTCTTTGA", "RUNX1 binding intensity": 833}

Name the recorded RUNX1 binding intensity for TTCATCTCTCACTTCCTGTGGTGACGGCTGACGGGG .
1030

Name the recorded RUNX1 binding intensity for CAGACCAGCCCAGGAAACAAGGAACCACAAAGCCAC .
842

Name the recorded RUNX1 binding intensity for CTGCCGCTGCCTTCCGCCCCCACACACGCACACCAC .
1240

Name the recorded RUNX1 binding intensity for GCCGTAGCGGAAGAGTGTTCGTGGTCATGTGACGCC .
718
